B1: HESX1 (parent)
chain: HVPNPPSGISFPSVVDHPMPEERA

variants of: B1; test: protein stability index of a GFP-peptide fusion (GPS, HEK-293T) (PSI 1-6); higher = more stable; conditions: c terminus: a fixed tail appended;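 further: lentivirally expressed fusions sorted by FACS into six bins by GFP to DsRed ratio, PSI derived from sequencing read proportions per bin multiplied by bin number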
assay-metric: protein stability index

* P20W | 2.1
* A24Y | 2.13
* V2S | 5.06
* G8A | 3.2
* N4H | 3.09
* E21T | 2.52
* A24G | 2.33
* S13K | 1.71
* P5K | 2.69
* P12G | 3.82
* E22I | 2.75
* G8K | 3.62
* S7Y | 2.04
